# IC50 values compiled below
target: 5-HT1A serotonin receptor (Rattus norvegicus, UniProt P19327)
Sequence (P19327 whole entry): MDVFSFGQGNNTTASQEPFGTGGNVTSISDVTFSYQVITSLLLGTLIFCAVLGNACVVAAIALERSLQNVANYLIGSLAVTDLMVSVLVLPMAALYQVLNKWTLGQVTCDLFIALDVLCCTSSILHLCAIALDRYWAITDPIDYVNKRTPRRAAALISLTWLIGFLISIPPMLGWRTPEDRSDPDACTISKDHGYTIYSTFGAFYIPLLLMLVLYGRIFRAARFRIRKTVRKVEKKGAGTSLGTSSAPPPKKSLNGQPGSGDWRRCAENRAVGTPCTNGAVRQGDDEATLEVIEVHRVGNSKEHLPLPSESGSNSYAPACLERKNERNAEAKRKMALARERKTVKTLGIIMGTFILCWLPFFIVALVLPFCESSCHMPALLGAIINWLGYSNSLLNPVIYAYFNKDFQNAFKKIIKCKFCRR
Kindly provide the numeric value in nM only, without the unit symbol.

- test_smiles: "C[C@H](CN1CC=C(c2cccc3[nH]ccc23)CC1)Nc1ccccn1"
  result_unit: "nM"
  IC50: 11.6

Field: next molecule
**Q:** I have this molecule here, `C[C@H](CN1CC=C(c2cccc3[nH]ccc23)CC1)N(C(=O)C1CCCCC1)c1ccccn1` , and I need its recorded IC50.
**A:** 1.7
